- Test system: A549/ATCC NSCLC
- METHOD: NCI-60 one-dose screen, 48 h (100 = growth as untreated, 0 = no growth, -100 = all killed)
- REPORTED_CONDITIONS: 10 µM unless noted
The panel holds about 83,000 compounds, 20% with a hit somewhere; the sample as a whole holds those more often.
OBSERVATION_TYPE: growth (%)
Express it in %; write the number only.

Lookup: Recall the reported growth of `CCCCCC(=O)OCC(=O)O[C@@H]1C[C@]2(C(C)C)O[C@@]1(C)[C@@H]1CC[C@@H](C)[C@H]1[C@@H]2OC(=O)/C=C/c1ccccc1` when tested on A549/ATCC NSCLC.
Found: 78.7

Lookup: Recall the reported growth of `CCCCC(=O)Nc1ncc(Cc2ccc(Cl)cc2)s1` when tested on A549/ATCC NSCLC.
Found: 53.1

Lookup: Recall the reported growth of `OCCOCCN(Cc1ccccn1)Cc1cc(I)cc(I)c1O` when tested on A549/ATCC NSCLC.
Found: 88.5

Lookup: Recall the reported growth of `N#C/C(=C/c1ccc([N+](=O)[O-])cc1)n1nnc2cc(F)c(F)cc21` when tested on A549/ATCC NSCLC.
Found: 87.6

Lookup: Recall the reported growth of O=S(=O)(Nc1ccccc1)c1ccc(C2CC3(Cl)C(Cl)=C(Cl)C2(Cl)C3(Cl)Cl)cc1 (stereo not given) when tested on A549/ATCC NSCLC.
Found: 30.2

* * *

- Tested on: HCT-15 colon
- METHOD: NCI-60 one-dose screen, 48 h (100 = growth as untreated, 0 = no growth, -100 = all killed)
- REPORTED_CONDITIONS: 10 µM unless noted
The panel holds about 83,000 compounds, 20% with a hit somewhere; the sample as a whole holds those more often.
OBSERVATION_TYPE: growth (%)
Express it in %; write the number only.

Lookup: Recall the reported growth of CC1(c2ccccc2O)NN=C(/N=C/c2cccc([N+](=O)[O-])c2)N1C(Cc1c[nH]c2ccccc12)C(=O)O (stereo not given) when tested on HCT-15 colon.
Found: 98.7

Lookup: Recall the reported growth of `COP(=O)(OC)C(C)(C)CC(=O)CC(C#N)(C#N)C(C#N)C#N` when tested on HCT-15 colon.
Found: 93.3

Lookup: Recall the reported growth of `Cc1ccc(Cl)cc1Nc1nc(C(F)(F)F)ccc1C(=O)N/N=C/c1cccnc1` when tested on HCT-15 colon.
Found: 19.2

Lookup: Recall the reported growth of `CC(=O)Nc1nc2ccc(NS(=O)(=O)c3cccc4c(N(C)C)cccc34)cc2[nH]1` when tested on HCT-15 colon.
Found: 72.9

Lookup: Recall the reported growth of `O=C(/C=C/c1ccc(Cl)cc1)c1cccc(Nc2nc(Nc3ccccc3)nc(Nc3ccccc3)n2)c1` when tested on HCT-15 colon.
Found: 83.9

Lookup: Recall the reported growth of `C=C(C)[C@@H]1CC[C@]2(C)[C@H](CC=C3[C@@H]4[C@H](C)[C@@H](C)CC[C@]4(CO)CC[C@]32C)[C@@]1(C)CCCN` when tested on HCT-15 colon.
Found: -39.1

Lookup: Recall the reported growth of `C[C@H](NC(=O)[C@@H](C)N)[C@H](Oc1ccc2c(cnn2-c2ccc(F)cc2)c1)c1ccc2c(c1)OCCO2` when tested on HCT-15 colon.
Found: 34

Lookup: Recall the reported growth of `Oc1ccc(CCn2c(O)c(/C=C3\CN=c4ccccc4=N3)sc2=S)cc1` when tested on HCT-15 colon.
Found: 35.2

Lookup: Recall the reported growth of `COC(=O)c1c2c(c(C)[n+]([O-])c1C)C(=O)C=C(NCc1ccc(Br)cc1)C2=O` when tested on HCT-15 colon.
Found: -63

Lookup: Recall the reported growth of `CCOC(=O)C1=NN(c2ccccc2)C(=O)/C1=C\N1C(=O)CC(=O)NC1=S` when tested on HCT-15 colon.
Found: 105

Lookup: Recall the reported growth of `CSc1nc2sc3c(c2c(=O)n1-c1ccc([N+](=O)[O-])cc1)CCCCC3` when tested on HCT-15 colon.
Found: 94.6

Lookup: Recall the reported growth of `O=C(Nc1cc(Cl)ccc1O)c1ccc(Nc2ccnc(C(F)(F)F)c2)cc1` when tested on HCT-15 colon.
Found: 30.9

Lookup: Recall the reported growth of `Cc1nc2ncnc(Cl)c2[nH]1` when tested on HCT-15 colon.
Found: 100

Lookup: Recall the reported growth of CCN1C(=O)N(CC)C2C1NN=c1s/c(=C\c3ccc(Cl)cc3Cl)c(=O)n12 (stereo not given) when tested on HCT-15 colon.
Found: 9.51

Lookup: Recall the reported growth of `O=C(OCc1ccc2cccc(O)c2n1)N1CCN(C(=O)c2cc3cc(F)ccc3[nH]2)CC1` when tested on HCT-15 colon.
Found: -36.4

Lookup: Recall the reported growth of `Cc1ccc(-n2c(=S)[nH]c3sc4c(c3c2=O)CCC(=O)C4)cc1` when tested on HCT-15 colon.
Found: 25

Lookup: Recall the reported growth of `N#Cc1c(-c2ccc(Cl)cc2)nc(SCC(=O)NC2=NN=C(c3ccccc3)CS2)[nH]c1=O` when tested on HCT-15 colon.
Found: 72.4

Lookup: Recall the reported growth of `C=C(C)[C@@H]1CC[C@]2(C(=O)N3CCN(C)CC3)CC[C@]3(C)[C@H](CC[C@@H]4[C@@]5(C)CC(=C/c6ccncc6)/C(=N/O)C(C)(C)[C@@H]5CC[C@]43C)[C@@H]12` when tested on HCT-15 colon.
Found: 65.5

Lookup: Recall the reported growth of CCO/C=N/C1=C(C#N)C(c2ccc(OC)cc2)c2sc3c(F)cccc3c2O1 (stereo not given) when tested on HCT-15 colon.
Found: 21.3

Lookup: Recall the reported growth of CC(C)N1CN2C(=S)NC3C2N(C1)C(=S)N3C (stereo not given) when tested on HCT-15 colon.
Found: 105

Lookup: Recall the reported growth of `O=C(COc1ccc(-c2nc3ccccc3[nH]2)cc1)N=Nc1c(O)[nH]c2ccc(Cl)cc12` when tested on HCT-15 colon.
Found: 93

Lookup: Recall the reported growth of `CN(C)CCNC(=O)c1cccc(-c2cnc3ccc(-c4ccc5c(c4)OCO5)nn23)c1` when tested on HCT-15 colon.
Found: 46

Lookup: Recall the reported growth of C[C@]12C=CC(=O)C=C1CCC1C2[C@@H](O)C[C@@]2(C)C1CC[C@]2(O)C(=O)COC(=O)CCC(=O)O (stereo not given in full) when tested on HCT-15 colon.
Found: 105

Lookup: Recall the reported growth of `CN(C)CCCn1c2c(c3ncccc3c1=O)C(=O)c1ccccc1-2` when tested on HCT-15 colon.
Found: 28.6

Lookup: Recall the reported growth of COC1C[C@H](O[C@@H]2C[C@H](O[C@@H]3C[C@H](O[C@@H]4C(=O)c5c(cc6cc(O[C@H]7C[C@@H](O[C@H]8C[C@@H](O)[C@H](O)C(C)O8)[C@H](O)C(C)O7)c(C)c(O)c6c5O)C[C@H]4C(OC)C(=O)[C@@H](O)[C@@H](C)O)OC(C)[C@H]3O)OC(C)[C@@H]2O)OC(C)[C@@H]1O (stereo not given in full) when tested on HCT-15 colon.
Found: 44.3

Lookup: Recall the reported growth of CCCC(O)Cn1ncc(C(=O)OCC)c1NC(=O)NCc1ccccc1F (stereo not given) when tested on HCT-15 colon.
Found: 105

Lookup: Recall the reported growth of CN(C)CCCC1(c2ccc(F)cc2)OCc2cc(-c3cncc4ccccc34)ccc21 (stereo not given) when tested on HCT-15 colon.
Found: 38.3

Lookup: Recall the reported growth of `Cc1ccc(-c2nc3nc(-c4ccc(F)cc4)nc(N4CCNCC4)c3o2)cc1` when tested on HCT-15 colon.
Found: -80

Lookup: Recall the reported growth of `C=C1C(=O)O[C@H]2[C@H]1CC/C(COC(=O)CSCCSCC(=O)OC/C1=C/CC[C@@]3(C)O[C@H]3[C@H]3OC(=O)C(=C)[C@@H]3CC1)=C\CC[C@@]1(C)O[C@@H]21` when tested on HCT-15 colon.
Found: -18.1

Lookup: Recall the reported growth of `CC(C)CCNC(=O)Cn1cccc(NC(=O)OCc2ccccc2)c1=O` when tested on HCT-15 colon.
Found: 111

Lookup: Recall the reported growth of `C=CCc1c(O)c(C(=O)/C=C/c2ccc(Cl)cc2)c(OC)c2ccoc12` when tested on HCT-15 colon.
Found: 41.3

Lookup: Recall the reported growth of `CC(=O)[C@@H]1CCC=C2CC[C@]3(C)[C@@H](CC[C@@H]4[C@@]5(C)CCCNC(C)(C)[C@@H]5CC[C@]43C)[C@H]21` when tested on HCT-15 colon.
Found: -89

Lookup: Recall the reported growth of `Cc1ccc(Sc2nnc(/N=C3\C(=O)Nc4ccccc43)s2)cc1` when tested on HCT-15 colon.
Found: 105

Lookup: Recall the reported growth of `N=C(N)c1ccc(-c2ccc(-c3ccc(F)cc3)o2)o1` when tested on HCT-15 colon.
Found: -0.304

Lookup: Recall the reported growth of `O=c1oc2ccc([N+](=O)[O-])cc2cc1Br` when tested on HCT-15 colon.
Found: 100
